# systemTested: UT receptor (Homo sapiens)
# Construct: SNAP-tag; expressed in transfected cells; host or cells: 293A8 (HEK293A stably transfected with the UT receptor); inferred, the calcium-assay paragraph names no cells
# methodSummary: intracellular calcium mobilization (Fluo-8 calcium assay)
# Assay type: cell-based
# statedConditions: intracellular calcium mobilization
measurementName: Calcium assay Emax

chemicalSmiles: CC(C)[C@H](NC(=O)[C@@H]1CSSC[C@H](NC(=O)[C@H](CC(=O)O)NC(=O)[C@@H]2CCCN2C(=O)[C@@H](NC(=O)[C@@H](N)CCC(=O)O)[C@@H](C)O)C(=O)N[C@@H](Cc2ccccc2)C(=O)N[C@@H](Cc2c[nH]c3ccccc23)C(=O)N[C@@H](CCCCN)C(=O)N[C@@H](Cc2ccc(O)cc2)C(=O)N1)C(=O)O
Calcium assay Emax: 5.27

chemicalSmiles: O=C(c1ccc([N+](=O)[O-])o1)N1CCN(c2ccc([N+](=O)[O-])cc2)CC1
Calcium assay Emax: 4.08

P: C=CC(C)(C)c1c(O)cc(O)c2c(=O)c(O)c(-c3cc(O)c4c(c3)C=CC(C)(C)O4)oc12
Q: O=C(NCCc1cccs1)C1(c2ccccc2)CCCC1
Input line: Pick one: P or Q . Which has the bigger Calcium assay Emax number? Field: selected label. Fill in the label of the entry you choose.
Output line: P

* * *

# systemTested: UT receptor (Homo sapiens, UniProt Q9UKP6)
# Construct: SNAP-tag; expressed in transfected cells; host or cells: 293A8 (HEK293A stably transfected with the UT receptor); inferred, the calcium-assay paragraph names no cells
# Sequence (Q9UKP6 1-389): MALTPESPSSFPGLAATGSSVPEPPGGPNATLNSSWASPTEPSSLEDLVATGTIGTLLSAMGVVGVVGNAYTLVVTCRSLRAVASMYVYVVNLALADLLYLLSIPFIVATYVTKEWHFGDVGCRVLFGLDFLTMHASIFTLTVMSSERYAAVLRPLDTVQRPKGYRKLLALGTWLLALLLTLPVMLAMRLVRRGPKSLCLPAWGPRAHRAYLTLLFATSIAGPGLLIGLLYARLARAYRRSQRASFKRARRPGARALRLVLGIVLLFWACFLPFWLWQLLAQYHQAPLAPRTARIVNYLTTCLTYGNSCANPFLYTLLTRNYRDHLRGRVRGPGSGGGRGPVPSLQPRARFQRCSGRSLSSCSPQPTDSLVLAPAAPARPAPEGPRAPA
# methodSummary: luciferase β-arrestin recruitment-based assay
# Type: cell-based
# Procedure: […] The β-arrestin recruitment-based experiments were performed according to previous reports with slight modifications. […] Then, the activity of firefly luciferase luminescence (RLUF) was measured using a SpectraMax M5 microplate reader (Molecular devices, LLC., San Jose, CA, USA).
measurementName: pEC50
Entry type: numeric. Quantity: pEC50, the -log10 of concentration in molar units.

Input line: Given O=C(c1ccc([N+](=O)[O-])o1)N1CCN(c2ccc([N+](=O)[O-])cc2)CC1 , state its recorded pEC50.
Output line: 7.43

* * *

# systemTested: UT receptor (Homo sapiens)
# Construct: SNAP-tag; expressed in transfected cells; host or cells: 293A8 (HEK293A stably transfected with the UT receptor); inferred, the calcium-assay paragraph names no cells
# methodSummary: intracellular calcium mobilization (Fluo-8 calcium assay)
# Type: cell-based
# statedConditions: intracellular calcium mobilization, fluorescence-based; read-out: Calcium assay EC50
pEC50: −log10 of the molar value.
measurementName: pEC50

chemicalSmiles: C=CC(C)(C)c1c(O)cc(O)c2c(=O)c(O)c(-c3cc(O)c4c(c3)C=CC(C)(C)O4)oc12
measurementName: pEC50
valueReported: 5.13

chemicalSmiles: O=C(NCCc1cccs1)C1(c2ccccc2)CCCC1
measurementName: pEC50
valueReported: 4.97

* * *

# systemTested: UT receptor (Homo sapiens)
# Construct: SNAP-tag; expressed in transfected cells; host or cells: 293A8 (HEK293A stably transfected with the UT receptor); inferred, the calcium-assay paragraph names no cells
# methodSummary: luciferase β-arrestin recruitment-based assay
# Format: cell-based
# statedConditions: HTLA cells transfected with UT receptor plasmid
measurementName: β-arrestin recruitment-based assay Emax

Record excerpt, results attached:
chemicalSmiles: O=C(c1ccc([N+](=O)[O-])o1)N1CCN(c2ccc([N+](=O)[O-])cc2)CC1
measurementName: β-arrestin recruitment-based assay Emax
valueReported: 2.40

chemicalSmiles: CC(C)[C@H](NC(=O)[C@@H]1CSSC[C@H](NC(=O)[C@H](CC(=O)O)NC(=O)[C@@H]2CCCN2C(=O)[C@@H](NC(=O)[C@@H](N)CCC(=O)O)[C@@H](C)O)C(=O)N[C@@H](Cc2ccccc2)C(=O)N[C@@H](Cc2c[nH]c3ccccc23)C(=O)N[C@@H](CCCCN)C(=O)N[C@@H](Cc2ccc(O)cc2)C(=O)N1)C(=O)O
measurementName: β-arrestin recruitment-based assay Emax
valueReported: 8.32

a: C=CC(C)(C)c1c(O)cc(O)c2c(=O)c(O)c(-c3cc(O)c4c(c3)C=CC(C)(C)O4)oc12
b: O=C(NCCc1cccs1)C1(c2ccccc2)CCCC1
Input line: Returns: the label, a or b , whose recorded β-arrestin recruitment-based assay Emax is the lower number. Please identify the chosen entry by its label.
Output line: b

* * *

# systemTested: UT receptor (Homo sapiens, UniProt Q9UKP6)
# Construct: SNAP-tag; expressed in transfected cells; host or cells: 293A8 (HEK293A stably transfected with the UT receptor); inferred, the calcium-assay paragraph names no cells
# methodSummary: intracellular calcium mobilization (Fluo-8 calcium assay)
# Assay type: cell-based
measurementName: pEC50
Friendly reminder that pEC50 comes from taking -log10 of the concentration in mol/L.

Input line: I am curious: what pEC50 value has been reported for O=C(c1ccc([N+](=O)[O-])o1)N1CCN(c2ccc([N+](=O)[O-])cc2)CC1 [Compound 2] ?
Output line: 4.99
